Please provide measured fold better than Parent (KD) for the entries that follow.
- SYSTEM_NAME: T1, CEACAM1 (Sino Biological) (human, UniProt P13688 35-428, limits assumed)
- T1 construct: may be the same as CEACAM1-HIS; also called hCEACAM1; biotinylated soluble CEACAM1
- T1 sequence: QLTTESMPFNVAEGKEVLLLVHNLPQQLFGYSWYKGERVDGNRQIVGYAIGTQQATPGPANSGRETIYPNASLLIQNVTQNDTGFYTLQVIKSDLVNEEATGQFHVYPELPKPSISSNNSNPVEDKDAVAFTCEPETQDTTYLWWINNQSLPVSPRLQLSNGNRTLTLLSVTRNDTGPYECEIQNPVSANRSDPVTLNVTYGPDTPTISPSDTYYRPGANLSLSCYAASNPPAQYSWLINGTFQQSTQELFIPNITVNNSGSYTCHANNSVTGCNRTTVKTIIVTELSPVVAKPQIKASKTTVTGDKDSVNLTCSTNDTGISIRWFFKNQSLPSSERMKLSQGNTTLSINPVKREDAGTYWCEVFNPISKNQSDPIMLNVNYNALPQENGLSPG
- PROTOCOL_DESCRIPTION: SPR single-cycle
Please respond with the number in fold and leave the unit unwritten.

Reported fold better than Parent (KD) of He13/L20 (antibody, IgG4, V domains shown, IgG4 S241P, kappa) VH: EVQLLESGGGLVQPGGSLRLSCAASGFSFSDYYLYWVRQAPGKGLEWVATISVGGGQTSYADSVKGRFTISRDNSKNTLYLQMNSLRAEDTAMYYCTRGLYYGPSWLAYWGQGTLVTVSS VL: DIVMTQSPDSLAVSLGERATINCKSSQSLLNSANQKNYLAWYQQKPGQPPKLLIYFASTRESGVPDRFSGSGSGTDFTLTISSLQAEDVAVYYCQSHFPYPLTFGGGTKVEIK : 1.46

Reported fold better than Parent (KD) of He6/L18 (antibody, IgG4, V domains shown, IgG4 S241P, kappa) VH: EVQLLESGGGLVQPGGSLRLSCAASGFSFSDYYLYWVRQAPGKGLEWVATISVGGGQTSYADSVKGRFTISRDNSKNTLYLQMNSLRAEDTAMYYCARARTYGPAWFAYWGQGTLVTVSS VL: DIVMTQSPDSLAVSLGERATINCKSSQSLLNSANQKNYLAWYQQKPGQPPKLLIYFASTRESGVPDRFSGSGSGTDFTLTISSLQAEDVAVYYCQSHFPYPFTFGGGTKVEIK : 1.92

Reported fold better than Parent (KD) of He17/L6 (antibody, IgG4, V domains shown, IgG4 S241P, kappa) VH: EVQLLESGGGLVQPGGSLRLSCAASGFSFSDYYLYWVRQAPGKGLEWVATISVGGGQTSYADSVKGRFTISRDNSKNTLYLQMNSLRAEDTAMYYCTRARTYGPAWFAYWGQGTLVTVSS VL: DIVMTQSPDSLAVSLGERATINCKSSQSLLNSANQKNYLAWYQQKPGQPPKLLIYFASTRESGVPDRFSGSGSGTDFTLTISSLQAEDVAVYYCQSHYPFSFTFGGGTKVEIK : 2.01

Reported fold better than Parent (KD) of He1/L17 (antibody, IgG4, V domains shown, IgG4 S241P, kappa) VH: EVQLLESGGGLVQPGGSLRLSCAASGFSFSDYYLYWVRQAPGKGLEWVATISVGGGQTSYADSVKGRFTISRDNSKNTLYLQMNSLRAEDTAMYYCTRGLYYGPSWFAYWGQGTLVTVSS VL: DIVMTQSPDSLAVSLGERATINCKSSQSLLNSANQKNYLAWYQQKPGQPPKLLIYFASTRESGVPDRFSGSGSGTDFTLTISSLQAEDVAVYYCQSHYPYPYTFGGGTKVEIK : 1.47

Reported fold better than Parent (KD) of He9/L6 (antibody, IgG4, V domains shown, IgG4 S241P, kappa; also called He9 / 6) VH: EVQLLESGGGLVQPGGSLRLSCAASGFSFSDYYLYWVRQAPGKGLEWVATISVGGGQTSYADSVKGRFTISRDNSKNTLYLQMNSLRAEDTAMYYCARAMYYGPAWFAYWGQGTLVTVSS VL: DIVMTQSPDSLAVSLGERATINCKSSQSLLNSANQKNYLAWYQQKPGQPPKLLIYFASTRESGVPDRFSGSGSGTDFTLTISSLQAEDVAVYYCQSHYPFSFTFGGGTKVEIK : 7.1
